molecular target: Human CB1 receptor (hCB1) (Homo sapiens, UniProt P21554); construct: purchased Receptor Biology; assay: hCB1 GTPγS binding; assay type: biochemical; details: maximal stimulated binding determined with 10 μM Win 55,212-2
Sequence (P21554 whole entry): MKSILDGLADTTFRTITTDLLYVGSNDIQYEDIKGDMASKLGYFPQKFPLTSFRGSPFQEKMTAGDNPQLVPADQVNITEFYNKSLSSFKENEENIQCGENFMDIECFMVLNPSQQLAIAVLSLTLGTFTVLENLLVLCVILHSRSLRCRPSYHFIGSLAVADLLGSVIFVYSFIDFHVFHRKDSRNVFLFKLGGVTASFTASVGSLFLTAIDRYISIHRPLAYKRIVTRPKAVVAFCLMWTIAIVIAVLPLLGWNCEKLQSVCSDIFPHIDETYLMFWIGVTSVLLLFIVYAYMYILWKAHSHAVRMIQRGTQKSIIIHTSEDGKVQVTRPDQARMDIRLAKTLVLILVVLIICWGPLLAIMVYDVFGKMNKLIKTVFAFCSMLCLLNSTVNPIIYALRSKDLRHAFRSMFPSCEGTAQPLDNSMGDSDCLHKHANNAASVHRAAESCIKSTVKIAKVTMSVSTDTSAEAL
# Emax listing for each entry below

# compound, Emax
measured = [
    ("CN(CC(=O)NC1CC1)C(=O)c1ccc2c(c1)c1c(n2C)CCC(C2CCOCC2)C1 (centres unmarked)", "121%"),
    ("CONC(=O)CCCN(C)C(=O)c1ccc2c(c1)c1c(n2C)CC[C@@H](C2CCOCC2)C1", "104%"),
    ("CC(C)S(=O)(=O)n1c2c(c3cc(C(=O)N(C)CC(=O)NC4CC4)ccc31)CC(C1CCCCC1)CC2 (centres unmarked)", "110%"),
    ("CCn1c2c(c3cc(C(=O)N4CCC(C)CC4)ccc31)CC(C1CCCCC1)CC2 (centres unmarked)", "90%"),
    ("CNC(=O)CCCN(C)C(=O)c1ccc2c(c1)c1c(n2C)CCC(C2CCOCC2)C1 (centres unmarked)", "102%"),
]

* * *

target: Human CB1 receptor (hCB1) (Homo sapiens, UniProt P21554); assay: hCB1 GTPγS binding; conditions: hCB1 membranes, GTPγ35S, 10-point dose-response
# EC50 listing for each entry below

# compound, value_relation_sign, EC50 (nM)
rows = [
    ("CCN(CC(=O)NCCOC)C(=O)c1ccc2c(c1)c1c(n2C)CCC(C2CCOCC2)C1 (stereo not drawn)", "=", 457),
    ("CCNC(=O)CC[C@@H](CO)N(C)C(=O)c1ccc2c(c1)c1c(n2C)CC[C@@H](C2CCOCC2)C1", "=", 79),
    ("CCS(=O)(=O)n1c2c(c3cc(C(=O)N4CCC(O)CC4)ccc31)CC(C1CCOCC1)CC2 (stereo not drawn)", "=", 352),
    ("CCNC(=O)[C@H]1CCN(C(=O)c2ccc3c(c2)c2c(n3C)CCC(C3CCOCC3)C2)C1 (stereo partly drawn)", "=", 103),
    ("Cn1c2c(c3cc(C(=O)N4CC[C@H](C(=O)NCC5CC5)C4)ccc31)CC(C1CCOCC1)CC2 (stereo partly drawn)", "=", 251),
    ("CCNC(=O)[C@@H](C)N(C)C(=O)c1ccc2c(c1)c1c(n2C)CCC(C2CCOCC2)C1 (stereo partly drawn)", "=", 237),
    ("CCS(=O)(=O)n1c2c(c3cc(C(=O)N4CC[C@@H](O)C4)ccc31)CC(C1CCOCC1)CC2 (stereo partly drawn)", ">", 3160),
    ("CCNC(=O)CN(CC)C(=O)c1ccc2c(c1)c1c(n2CC2CC2)CCC(C2CCOCC2)C1 (stereo not drawn)", "=", 157),
    ("Cn1c2c(c3cc(C(=O)N4CC(C(=O)NC5CC5)C4)ccc31)CC(C1CCOCC1)CC2 (stereo not drawn)", "=", 274),
]

* * *

target: Human CB1 receptor (hCB1) (Homo sapiens)
pKi: −log10 of the molar value.

# compound, subject_of_test, pKi
data = [
    ("CCn1c2c(c3cc(C(=O)N(C)CCCC(=O)NCCF)ccc31)CC(C1CCOCC1)CC2 (stereo not drawn)", "Human CB1 receptor (hCB1) (Homo sapiens)", 7.59),
    ("CCN(CC(=O)NCC(F)F)C(=O)c1ccc2c(c1)c1c(n2C)CCC(C2CCOCC2)C1 (stereo not drawn)", "Human CB1 receptor (hCB1) (Homo sapiens)", 7.77),
    ("CCn1c2c(c3cc(C(=O)N(C)CCCC(=O)NCC(F)(F)F)ccc31)CC(C1CCOCC1)CC2 (stereo not drawn)", "Human CB1 receptor (hCB1) (Homo sapiens)", 6.96),
    ("Cn1c2c(c3cc(C(=O)N4CCCC(NC(=O)C5CC5)C4)ccc31)CC(C1CCOCC1)CC2 (stereo not drawn)", "Human CB1 receptor (hCB1) (Homo sapiens)", 7.57),
    ("CCN(CC(=O)NCCF)C(=O)c1ccc2c(c1)c1c(n2C2CCC2)CCC(C2CCOCC2)C1 (stereo not drawn)", "Human CB1 receptor (hCB1) (Homo sapiens)", 6.88),
    ("CCN(CC(=O)NCCOC)C(=O)c1ccc2c(c1)c1c(n2C)CCC(C2CCOCC2)C1 (stereo not drawn)", "Human CB1 receptor (hCB1) (Homo sapiens)", 6.66),
    ("CCN(CCCC(=O)NC1CC1)C(=O)c1ccc2c(c1)c1c(n2C)CCC(C2CCOCC2)C1 (stereo not drawn)", "Human CB1 receptor (hCB1) (Homo sapiens)", 8.55),
    ("CCNC(=O)[C@H]1CCN(C(=O)c2ccc3c(c2)c2c(n3C)CCC(C3CCOCC3)C2)C1 (stereo partly drawn)", "Human CB1 receptor (hCB1) (Homo sapiens)", 7.16),
    ("CCS(=O)(=O)n1c2c(c3cc(C(=O)N4CCC(C)CC4)ccc31)CC(C1CCCCC1)CC2 (stereo not drawn)", "Human CB1 receptor (hCB1) (Homo sapiens)", 7.82),
]
